System: SNB-78 CNS
Experiment: NCI tumour cell line growth inhibition, 48 h
property-measured: TGI

Use the examples below as a reference point.
COc1ccc2nc3cc(Cl)ccc3c(NC(C)CCCN(CCCl)CCCl)c2c1 (configuration not stated)	7.38 µM
NNC(=O)C(=O)NN=C(C(Cl)(Cl)CO)C(Cl)(Cl)CO	> 100 µM
O=C(CCCC(=O)Nc1ccc(Cl)cc1Cl)CC(=O)c1ccc2ccccc2c1	> 100 µM
N#CC1CC(c2ccccc2)Nc2cc(Cl)ccc2N1 (configuration not stated)	> 100 µM
CCc1cccc(CC)c1NC(=O)/C(Cl)=C(/Cl)C(=O)O	65.8 µM
O=C(c1ccccc1)C1(Br)S(=O)(=O)OCCOS1(=O)=O	> 100 µM

Please look up its TGI: c1ccc(C(c2ccccc2)c2ccccn2)cc1
> 100 µM

// query TGI value for entry CN1CCOC(C(NC(=O)c2ccccc2)c2ccccc2)C1=O (configuration not stated)
> 100 µM

Suppose we examine the compound C1CSCCSCCCS[C@@H]2CCCCC2SC1 (some centres not stated) ; what TGI value has been reported?
> 100 µM

Look up TGI: CCOC(=O)C1=C(NC)OCC1=O
> 100 µM

Entry under review: O=C1N[C@@H]2CCCC[C@@H]2C12CCCCC2 . Reported TGI?
> 100 µM

Return reported TGI; argument: O=C1c2ccccc2N2OC3(N4CCOCC4)CCCC3C12c1ccccc1 (configuration not stated)
> 100 µM
